Molecular target: serotonin transporter (SERT) (Homo sapiens)
Construct: expressed in transfected cells; host or cells: CHO cells
Sequence (P31645 whole entry): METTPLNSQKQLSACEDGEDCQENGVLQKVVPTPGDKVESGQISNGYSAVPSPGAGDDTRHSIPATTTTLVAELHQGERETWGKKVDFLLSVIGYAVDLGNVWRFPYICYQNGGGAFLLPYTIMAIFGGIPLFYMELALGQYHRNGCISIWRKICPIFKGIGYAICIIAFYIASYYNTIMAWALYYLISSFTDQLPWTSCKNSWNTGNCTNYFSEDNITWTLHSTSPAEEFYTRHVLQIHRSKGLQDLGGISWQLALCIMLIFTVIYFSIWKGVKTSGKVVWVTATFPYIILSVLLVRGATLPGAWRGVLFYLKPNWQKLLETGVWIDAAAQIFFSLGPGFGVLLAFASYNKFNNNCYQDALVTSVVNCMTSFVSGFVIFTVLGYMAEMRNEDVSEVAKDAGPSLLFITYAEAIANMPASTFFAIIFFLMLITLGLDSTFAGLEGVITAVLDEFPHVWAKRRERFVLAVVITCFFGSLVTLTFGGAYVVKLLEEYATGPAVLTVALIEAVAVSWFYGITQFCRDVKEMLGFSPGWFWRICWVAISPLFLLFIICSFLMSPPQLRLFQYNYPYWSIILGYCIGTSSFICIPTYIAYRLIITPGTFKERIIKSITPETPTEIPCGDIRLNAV
Test: Radioligand binding assay, serotonin transporter (SERT)
Conditions: binding assay, test compound 1×10^−6 M
Categorize each record by its SERT [%] using bin 0 = under 10%, bin 1 = from 10% up to 30%, bin 2 = 30% and over

Solved cases below.
1) O=S(=O)(NC1CN(CCOc2cccc3c2OCCO3)C1)c1cccc2ccccc12 | bin 2
2) O=S(=O)(NC1CCN(CCOc2cccc3c2OCCO3)C1)c1cccc2ccccc12 (centres unmarked) | bin 1
3) Cc1cccc(S(=O)(=O)NC2CCN(CCOc3cccc4c3OCCO4)CC2)c1 | bin 2
4) Cc1cccc(S(=O)(=O)NC2CCN(CCCc3noc4cc(F)ccc34)CC2)c1 | bin 0
5) O=S(=O)(NC1CN(CCOc2cccc3c2OCCO3)C1)c1ccc(F)cc1 | bin 1

Task: Textbook exercise: identify the category of the compound given here, O=S(=O)(NCC1CCN(CCOc2ccc3cc[nH]c3c2)CC1)c1cccc2ccccc12 , according to its measured value.
Result: bin 2

Task: Textbook exercise: identify the category of the compound given here, Cc1cccc(S(=O)(=O)NC2CCN(CCOc3cccc4[nH]ccc34)CC2)c1 , according to its measured value.
Result: bin 1

Task: Textbook exercise: identify the category of the compound given here, Cc1cccc(S(=O)(=O)NC2CCN(CCOc3cccc4c3OCCO4)C2)c1 (centres unmarked) , according to its measured value.
Result: bin 0

Task: Textbook exercise: identify the category of the compound given here, O=S(=O)(NC1CCN(CCOc2cccc3[nH]ccc23)CC1)c1cccc2ccccc12 , according to its measured value.
Result: bin 1

Task: Textbook exercise: identify the category of the compound given here, Cc1cccc(S(=O)(=O)NCC2CCN(CCCc3noc4cc(F)ccc34)CC2)c1 , according to its measured value.
Result: bin 0

Task: Textbook exercise: identify the category of the compound given here, O=S(=O)(NCC1CN(CCCc2noc3cc(F)ccc23)C1)c1cc2ccccc2s1 [Compound 153] , according to its measured value.
Result: bin 1

Task: Textbook exercise: identify the category of the compound given here, O=S(=O)(NC1CCN(CCOc2cccc3c2OCCO3)C1)c1ccccc1 (centres unmarked) , according to its measured value.
Result: bin 1

Task: Textbook exercise: identify the category of the compound given here, O=S(=O)(NC1CCN(CCOc2nsc3ccccc23)CC1)c1ccc2ccccc2c1 , according to its measured value.
Result: bin 0

Task: Textbook exercise: identify the category of the compound given here, CC1(C)Cc2cccc(OCCN3CCC(NS(=O)(=O)c4ccc5ccccc5c4)CC3)c2O1 , according to its measured value.
Result: bin 2
